# testedTarget: Cytochrome P450 2C8 (Homo sapiens, UniProt P10632)
# Sequence (P10632 whole entry): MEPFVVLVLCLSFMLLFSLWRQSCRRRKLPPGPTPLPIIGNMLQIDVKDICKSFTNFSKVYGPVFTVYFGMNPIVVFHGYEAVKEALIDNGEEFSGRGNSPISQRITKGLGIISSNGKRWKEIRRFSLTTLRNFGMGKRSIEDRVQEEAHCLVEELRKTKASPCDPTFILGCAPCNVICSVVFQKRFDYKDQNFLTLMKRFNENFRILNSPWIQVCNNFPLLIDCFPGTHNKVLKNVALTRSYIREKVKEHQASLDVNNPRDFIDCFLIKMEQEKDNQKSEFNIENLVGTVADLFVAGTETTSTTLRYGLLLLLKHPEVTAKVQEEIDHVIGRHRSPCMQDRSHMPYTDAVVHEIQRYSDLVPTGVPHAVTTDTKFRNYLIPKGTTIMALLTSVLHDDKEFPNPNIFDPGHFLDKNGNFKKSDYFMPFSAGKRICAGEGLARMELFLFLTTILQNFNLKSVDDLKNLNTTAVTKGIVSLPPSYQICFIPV
endpointLabel: IC50

| smilesInput | valueMeasured |
| --- | --- |
| Cc1[nH]c(/C=C2\C(=O)Nc3ccc(F)cc32)c(C)c1NC(=O)[C@H]1CCCN1.Cl | > 33 µM |

----------
# Test system: LC-2-ad
# assayMethodText: Antiproliferative activity against human LC2/ad cells harboring RET after 72 hrs by MTS assay
# Assay type: functional, cell-based
endpointLabel: IC50 (nM)

| smilesInput | valueMeasured |
| --- | --- |
| Cc1[nH]c(/C=C2\C(=O)Nc3ccc(F)cc32)c(C)c1NC(=O)[C@H]1CCCN1.Cl | 621 |

----------
# testedTarget: UniProt:P08684
# assayMethodText: Inhibition of microsomal CYP3A4 (unknown origin) using midazolam as substrate preincubated for 5 mins followed by NADPH addition by LC-MS/MS analysis
# Type: ADME
endpointLabel: IC50

| smilesInput | valueMeasured |
| --- | --- |
| Cc1[nH]c(/C=C2\C(=O)Nc3ccc(F)cc32)c(C)c1NC(=O)[C@H]1CCCN1.Cl | > 33 µM |

----------
# testedTarget: Cytochrome P450 3A4 (Homo sapiens, UniProt P08684)
# Sequence (P08684 whole entry): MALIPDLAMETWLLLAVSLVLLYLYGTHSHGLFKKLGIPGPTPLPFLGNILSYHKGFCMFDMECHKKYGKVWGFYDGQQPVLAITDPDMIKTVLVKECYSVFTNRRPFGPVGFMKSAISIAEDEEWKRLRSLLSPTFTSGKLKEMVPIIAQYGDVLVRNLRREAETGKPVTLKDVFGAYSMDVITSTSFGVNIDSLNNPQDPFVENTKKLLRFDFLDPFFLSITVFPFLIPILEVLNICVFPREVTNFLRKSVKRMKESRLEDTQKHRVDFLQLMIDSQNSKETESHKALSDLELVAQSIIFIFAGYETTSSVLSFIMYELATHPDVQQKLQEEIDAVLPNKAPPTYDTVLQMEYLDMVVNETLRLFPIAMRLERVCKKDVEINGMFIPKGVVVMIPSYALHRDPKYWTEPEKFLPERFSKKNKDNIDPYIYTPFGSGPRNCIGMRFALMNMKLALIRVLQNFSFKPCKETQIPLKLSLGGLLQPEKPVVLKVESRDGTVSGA
# assayMethodText: Inhibition of microsomal CYP3A4 (unknown origin) using testosterone as substrate preincubated for 5 mins followed by NADPH addition by LC-MS/MS analysis
# Type: ADME
pIC50: −log10 of the molar value.

| smilesInput | pIC50 |
| --- | --- |
| Cc1[nH]c(/C=C2\C(=O)Nc3ccc(F)cc32)c(C)c1NC(=O)[C@H]1CCCN1.Cl | < 4.48 |

----------
# testedTarget: Cytochrome P450 2C9 (Homo sapiens, UniProt P11712)
# Sequence (P11712 whole entry): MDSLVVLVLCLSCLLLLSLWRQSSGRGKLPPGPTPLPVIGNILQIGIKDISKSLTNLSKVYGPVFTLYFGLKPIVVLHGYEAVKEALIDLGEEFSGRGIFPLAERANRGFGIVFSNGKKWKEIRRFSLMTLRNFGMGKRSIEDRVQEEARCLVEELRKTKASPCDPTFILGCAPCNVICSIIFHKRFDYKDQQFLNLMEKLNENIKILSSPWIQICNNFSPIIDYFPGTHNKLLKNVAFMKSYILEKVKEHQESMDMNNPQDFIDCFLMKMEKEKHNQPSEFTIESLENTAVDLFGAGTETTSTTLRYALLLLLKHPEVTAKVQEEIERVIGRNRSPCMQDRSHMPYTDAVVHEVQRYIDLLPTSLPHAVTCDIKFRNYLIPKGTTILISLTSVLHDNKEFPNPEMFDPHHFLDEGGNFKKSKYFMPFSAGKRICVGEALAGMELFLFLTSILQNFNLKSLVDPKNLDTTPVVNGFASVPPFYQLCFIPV
pIC50: −log10 of the molar value.

| smilesInput | testedTarget | pIC50 |
| --- | --- | --- |
| Cc1[nH]c(/C=C2\C(=O)Nc3ccc(F)cc32)c(C)c1NC(=O)[C@H]1CCCN1.Cl | Cytochrome P450 2C9 (Homo sapiens, UniProt P11712) | < 4.48 |

----------
# assayMethodText: Cmax in Balb/c nude mouse at 40 mg/kg, po via gavage by LC-MS/MS analysis
# Format: ADME, organism-based
# Design: dose 40 mg/kg, route oral
# settings: in vivo

| smilesInput | Cmax (ng/mL) |
| --- | --- |
| Cc1[nH]c(/C=C2\C(=O)Nc3ccc(F)cc32)c(C)c1NC(=O)[C@H]1CCCN1.Cl | 709 |

----------
# assayMethodText: Oral bioavailability in Balb/c nude mouse at 40 mg/kg via gavage by LC-MS/MS analysis
# Format: ADME, organism-based
# settings: in vivo

| smilesInput | bioavailability |
| --- | --- |
| Cc1[nH]c(/C=C2\C(=O)Nc3ccc(F)cc32)c(C)c1NC(=O)[C@H]1CCCN1.Cl | 59% |

----------
# testedTarget: UniProt:P36888
# Sequence (P36888 whole entry): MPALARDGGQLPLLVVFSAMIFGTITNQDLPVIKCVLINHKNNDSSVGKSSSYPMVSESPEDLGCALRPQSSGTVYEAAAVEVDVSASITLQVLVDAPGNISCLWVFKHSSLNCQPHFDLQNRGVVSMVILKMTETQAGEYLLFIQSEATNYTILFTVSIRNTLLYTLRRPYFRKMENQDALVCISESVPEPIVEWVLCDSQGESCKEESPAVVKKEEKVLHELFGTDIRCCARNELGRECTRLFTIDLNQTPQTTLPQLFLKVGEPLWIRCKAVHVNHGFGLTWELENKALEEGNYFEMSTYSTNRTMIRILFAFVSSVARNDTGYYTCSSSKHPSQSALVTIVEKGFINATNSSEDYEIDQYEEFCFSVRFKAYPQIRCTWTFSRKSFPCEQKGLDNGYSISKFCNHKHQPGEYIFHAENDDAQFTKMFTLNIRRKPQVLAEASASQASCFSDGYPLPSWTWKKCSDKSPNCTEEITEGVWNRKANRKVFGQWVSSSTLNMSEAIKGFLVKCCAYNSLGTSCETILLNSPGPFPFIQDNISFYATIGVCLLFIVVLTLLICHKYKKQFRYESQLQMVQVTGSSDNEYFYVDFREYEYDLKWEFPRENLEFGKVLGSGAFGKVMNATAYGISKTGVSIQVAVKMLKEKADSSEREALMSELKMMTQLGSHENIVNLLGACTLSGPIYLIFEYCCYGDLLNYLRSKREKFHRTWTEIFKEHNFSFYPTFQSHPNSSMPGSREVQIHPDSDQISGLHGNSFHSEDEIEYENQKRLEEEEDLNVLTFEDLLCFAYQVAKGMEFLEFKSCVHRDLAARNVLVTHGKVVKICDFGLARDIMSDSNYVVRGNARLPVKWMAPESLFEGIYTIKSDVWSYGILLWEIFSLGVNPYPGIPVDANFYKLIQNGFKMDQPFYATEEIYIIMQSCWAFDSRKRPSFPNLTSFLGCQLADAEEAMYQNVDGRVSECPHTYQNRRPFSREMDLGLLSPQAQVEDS

| smilesInput | IC50 [nM] |
| --- | --- |
| Cc1[nH]c(/C=C2\C(=O)Nc3ccc(F)cc32)c(C)c1NC(=O)[C@H]1CCCN1.Cl | 5.3 |

----------
# assayMethodText: Half life in Balb/c nude mouse at 40 mg/kg, po via gavage by LC-MS/MS analysis
# Type: ADME, organism-based
# settings: in vivo
endpointLabel: half-life (h)

| smilesInput | endpointLabel | unitText | valueMeasured |
| --- | --- | --- | --- |
| Cc1[nH]c(/C=C2\C(=O)Nc3ccc(F)cc32)c(C)c1NC(=O)[C@H]1CCCN1.Cl | half-life | h | 1.6 |

----------
# testedTarget: Cytochrome P450 2D6 (Homo sapiens)
# Sequence (P10635 whole entry): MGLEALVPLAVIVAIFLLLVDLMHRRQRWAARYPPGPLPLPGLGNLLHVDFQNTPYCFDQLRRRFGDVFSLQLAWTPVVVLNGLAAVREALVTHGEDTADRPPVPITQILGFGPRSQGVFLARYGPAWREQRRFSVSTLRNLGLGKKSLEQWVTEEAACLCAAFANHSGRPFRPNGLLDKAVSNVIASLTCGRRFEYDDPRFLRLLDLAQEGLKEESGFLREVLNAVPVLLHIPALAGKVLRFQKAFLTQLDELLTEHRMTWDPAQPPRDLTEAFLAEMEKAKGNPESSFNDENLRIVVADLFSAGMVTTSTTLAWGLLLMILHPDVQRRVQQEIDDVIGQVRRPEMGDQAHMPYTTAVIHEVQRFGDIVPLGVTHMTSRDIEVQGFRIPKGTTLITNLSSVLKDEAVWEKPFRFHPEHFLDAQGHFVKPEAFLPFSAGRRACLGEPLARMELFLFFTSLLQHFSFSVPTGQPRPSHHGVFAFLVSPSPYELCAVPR
pIC50: −log10 of the molar value.

| smilesInput | pIC50 |
| --- | --- |
| Cc1[nH]c(/C=C2\C(=O)Nc3ccc(F)cc32)c(C)c1NC(=O)[C@H]1CCCN1.Cl | < 4.48 |

----------
# Test system: HUVEC
# assayMethodText: Antiproliferative activity against HUVEC after 72 hrs by MTS assay
# Format: cell-based
# settings: Homo sapiens

| smilesInput | testedTarget | IC50 |
| --- | --- | --- |
| Cc1[nH]c(/C=C2\C(=O)Nc3ccc(F)cc32)c(C)c1NC(=O)[C@H]1CCCN1.Cl | HUVEC | 11.3 µM |

----------
# System: MDA-MB-231
# assayMethodText: Antiproliferative activity against human MDA-MB-231 cells harboring K-Ras/B-Raf after 72 hrs by MTS assay
# Assay type: functional, cell-based
# settings: MDA-MB-231, 72 h

| smilesInput | IC50 |
| --- | --- |
| Cc1[nH]c(/C=C2\C(=O)Nc3ccc(F)cc32)c(C)c1NC(=O)[C@H]1CCCN1.Cl | > 20 µM |

----------
# Tested on: Kasumi 1
# assayMethodText: Antiproliferative activity against human Kasumi-1 cells harboring […] after 72 hrs by MTS assay
# Type: functional, cell-based
# settings: Kasumi 1, 72 h
pIC50: −log10 of the molar value.
endpointLabel: pIC50

| smilesInput | valueMeasured |
| --- | --- |
| Cc1[nH]c(/C=C2\C(=O)Nc3ccc(F)cc32)c(C)c1NC(=O)[C@H]1CCCN1.Cl | 6.60 |

----------
# testedTarget: Cytochrome P450 2B6 (Homo sapiens)
# Sequence (P20813 whole entry): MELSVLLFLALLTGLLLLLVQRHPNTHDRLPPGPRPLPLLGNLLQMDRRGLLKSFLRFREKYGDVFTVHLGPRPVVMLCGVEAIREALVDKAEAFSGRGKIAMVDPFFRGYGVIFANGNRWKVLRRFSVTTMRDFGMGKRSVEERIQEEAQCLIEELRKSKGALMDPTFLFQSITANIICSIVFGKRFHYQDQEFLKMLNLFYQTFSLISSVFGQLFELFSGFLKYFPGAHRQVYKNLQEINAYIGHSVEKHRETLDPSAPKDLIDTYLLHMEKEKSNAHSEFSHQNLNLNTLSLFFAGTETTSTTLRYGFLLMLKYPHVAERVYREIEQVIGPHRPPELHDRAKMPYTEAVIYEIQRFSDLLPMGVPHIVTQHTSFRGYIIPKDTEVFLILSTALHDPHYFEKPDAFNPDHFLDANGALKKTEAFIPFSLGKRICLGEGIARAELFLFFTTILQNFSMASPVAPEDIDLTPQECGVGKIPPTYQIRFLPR

| smilesInput | IC50 |
| --- | --- |
| Cc1[nH]c(/C=C2\C(=O)Nc3ccc(F)cc32)c(C)c1NC(=O)[C@H]1CCCN1.Cl | > 33 µM |

----------
# assayMethodText: AUC (0 to infinity) in Balb/c nude mouse at 40 mg/kg, po via gavage by LC-MS/MS analysis
# Assay type: ADME, organism-based
# Parameters: dose 40 mg/kg, time infinity, route oral
# settings: in vivo

| smilesInput | unitText | AUC(0-inf) |
| --- | --- | --- |
| Cc1[nH]c(/C=C2\C(=O)Nc3ccc(F)cc32)c(C)c1NC(=O)[C@H]1CCCN1.Cl | ng·h/mL | 3070 |
